Test system: LXRa homodimer (NR concentration 270 nM)
Test: PBM binding z-score (relative to random genomic background probes); higher = stronger binding; sequences stand for … in GC…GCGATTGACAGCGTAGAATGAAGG
Assign class by PBM binding z-score: not lower than 0.2 means Satisfied; lower than 0.2 means Not satisfied.

Is PBM binding z-score at least 0.2? Consider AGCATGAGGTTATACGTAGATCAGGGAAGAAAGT
Satisfied

Is PBM binding z-score at least 0.2? Consider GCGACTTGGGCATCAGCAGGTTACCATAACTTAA
Not satisfied

Kindly determine if PBM binding z-score recorded for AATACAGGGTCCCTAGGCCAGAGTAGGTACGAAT is above or exactly 0.2.
Not satisfied

Test whether the sequence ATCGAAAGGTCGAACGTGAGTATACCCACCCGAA records PBM binding z-score of 0.2 or higher.
Satisfied

Does PBM binding z-score meet or surpass 0.2 for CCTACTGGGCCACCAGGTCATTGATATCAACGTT ?
Satisfied

* * *

System: RARb:RXRa (NR concentration 270 nM, RXRa partner concentration 90 nM)
Test: PBM binding z-score (relative to random genomic background probes); higher = stronger binding; sequences stand for … in GC…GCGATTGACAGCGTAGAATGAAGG
Label rule, in plain words: PBM binding z-score of 2 and up is 1, under 2 is 0.

Would you say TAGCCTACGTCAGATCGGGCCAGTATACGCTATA shows PBM binding z-score at minimum 2?
0

Reported PBM binding z-score reaches at least 2 for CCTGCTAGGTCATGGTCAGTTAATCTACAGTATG ?
1

Decide: is the reported value of PBM binding z-score for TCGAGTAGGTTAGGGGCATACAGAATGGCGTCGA equal to or greater than 2?
0

Form field: PBM binding z-score at least 2? Entry: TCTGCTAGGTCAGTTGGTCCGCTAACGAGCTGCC
1

State whether the measured PBM binding z-score reaches 2, counting equality as reaching it, for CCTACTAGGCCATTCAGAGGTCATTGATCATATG
1

Textbook exercise: given the entry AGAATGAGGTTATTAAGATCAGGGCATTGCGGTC , state whether its PBM binding z-score is greater than or equal to 2.
0

Decide: is the reported value of PBM binding z-score for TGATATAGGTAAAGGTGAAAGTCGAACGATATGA equal to or greater than 2?
0

Item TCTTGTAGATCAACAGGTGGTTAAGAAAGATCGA with PBM binding z-score of 2 or above?
0

Quick check, PBM binding z-score >= 2? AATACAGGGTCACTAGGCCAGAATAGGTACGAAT
1

* * *

Tested on: PXR homodimer (NR concentration 270 nM)
Test: PBM binding z-score (relative to random genomic background probes); higher = stronger binding; sequences stand for … in GC…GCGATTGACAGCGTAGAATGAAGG
RECORDED ENDPOINT: PBM binding z-score
Number only, no unit.

Complete the entry with PBM binding z-score for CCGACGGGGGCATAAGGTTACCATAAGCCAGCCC
0.496

Consider the sequence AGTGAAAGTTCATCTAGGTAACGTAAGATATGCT . State its measured PBM binding z-score.
6.78

Provide measured PBM binding z-score value, entry: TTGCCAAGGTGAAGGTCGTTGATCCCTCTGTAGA
-0.362

Give a short answer stating reported PBM binding z-score for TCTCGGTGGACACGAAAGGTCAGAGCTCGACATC .
0.441

Dear colleague, please send me the reported PBM binding z-score for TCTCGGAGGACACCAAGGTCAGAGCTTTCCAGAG when you can.
2.65

Retrieve PBM binding z-score measured for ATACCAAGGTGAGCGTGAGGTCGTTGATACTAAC and print it.
0.571

Tell us which PBM binding z-score value is on record for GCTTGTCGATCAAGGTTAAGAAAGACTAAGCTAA
-0.652

Tell me PBM binding z-score reported for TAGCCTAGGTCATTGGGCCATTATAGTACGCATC
-0.263

Give a short answer stating reported PBM binding z-score for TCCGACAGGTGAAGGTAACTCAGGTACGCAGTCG .
-0.308

Report PBM binding z-score for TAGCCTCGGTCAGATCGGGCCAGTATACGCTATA
-1.31

Read off the recorded PBM binding z-score for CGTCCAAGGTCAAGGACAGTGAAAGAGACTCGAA
0.575

Name the recorded PBM binding z-score of the item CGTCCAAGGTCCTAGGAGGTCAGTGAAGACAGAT in your answer.
0.587

Given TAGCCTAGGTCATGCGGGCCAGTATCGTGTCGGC , respond with its PBM binding z-score.
-0.532

Note down PBM binding z-score recorded for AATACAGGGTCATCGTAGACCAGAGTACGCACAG
0.967

Identify measured PBM binding z-score corresponding to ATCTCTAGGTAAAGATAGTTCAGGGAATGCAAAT
0.399

Give the value of PBM binding z-score reported for the following: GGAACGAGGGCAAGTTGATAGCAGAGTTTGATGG
0.84

Identify measured PBM binding z-score associated with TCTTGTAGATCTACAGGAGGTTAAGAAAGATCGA
-0.569

Return value of PBM binding z-score for input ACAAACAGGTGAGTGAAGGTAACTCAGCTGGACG , no commentary.
-0.143

Give reported PBM binding z-score value for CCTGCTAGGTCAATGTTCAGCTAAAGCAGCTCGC
-0.474

Please indicate PBM binding z-score recorded for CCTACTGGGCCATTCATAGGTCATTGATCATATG
0.411

Complete the entry with PBM binding z-score for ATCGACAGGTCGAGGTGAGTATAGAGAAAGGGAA
0.0221

Assign PBM binding z-score to the following record: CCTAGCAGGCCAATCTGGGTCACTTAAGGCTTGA
-0.589

Find the measured PBM binding z-score of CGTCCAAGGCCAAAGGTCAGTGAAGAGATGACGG and report it.
0.612

Consider the sequence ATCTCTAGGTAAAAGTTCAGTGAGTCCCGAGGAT . State its measured PBM binding z-score.
2.57

Given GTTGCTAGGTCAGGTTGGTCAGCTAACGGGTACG , respond with its PBM binding z-score.
0.178

Supply measured PBM binding z-score of TCGAGTAGGTTAGGGGCATTCAAAATGGCGTCGA in your reply.
0.65

Identify measured PBM binding z-score corresponding to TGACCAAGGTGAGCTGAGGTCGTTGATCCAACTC
0.0412

Please report the measured PBM binding z-score for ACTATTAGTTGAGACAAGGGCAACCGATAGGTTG
0.47

Given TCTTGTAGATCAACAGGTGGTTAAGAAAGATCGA , respond with its PBM binding z-score.
0.00391

Output measured PBM binding z-score for this item: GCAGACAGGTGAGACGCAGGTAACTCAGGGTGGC
-0.385

Tell me measured PBM binding z-score for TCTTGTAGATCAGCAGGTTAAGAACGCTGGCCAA please.
-0.543

Using the record for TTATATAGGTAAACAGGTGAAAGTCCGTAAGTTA , state its measured PBM binding z-score.
0.398

Provide measured PBM binding z-score value, entry: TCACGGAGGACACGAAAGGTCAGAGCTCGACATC
0.408

Read the entry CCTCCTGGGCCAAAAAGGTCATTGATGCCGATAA and write its reported PBM binding z-score.
2.5

Answer with reported PBM binding z-score of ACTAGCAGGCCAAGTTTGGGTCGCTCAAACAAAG
-0.606

Retrieve PBM binding z-score measured for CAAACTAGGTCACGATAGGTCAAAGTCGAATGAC and print it.
0.73

For the sequence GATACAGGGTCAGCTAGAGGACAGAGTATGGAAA , report PBM binding z-score.
0.27

Note down PBM binding z-score recorded for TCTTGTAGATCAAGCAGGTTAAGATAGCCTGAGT
-0.159

Item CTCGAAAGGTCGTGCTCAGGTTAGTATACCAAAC : provide PBM binding z-score
0.392

Give PBM binding z-score for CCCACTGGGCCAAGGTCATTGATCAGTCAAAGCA
1.12

State its PBM binding z-score: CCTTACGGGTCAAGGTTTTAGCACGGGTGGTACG
-0.244

Give the reported value of PBM binding z-score for this record: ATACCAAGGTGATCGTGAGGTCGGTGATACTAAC
0.32

Give me measured PBM binding z-score, please, for this sequence: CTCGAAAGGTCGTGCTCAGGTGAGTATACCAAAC
-0.155

* * *

Test system: PPARg:RXRa (NR concentration 180 nM, RXRa partner concentration 90 nM)
Assay: PBM binding z-score (relative to random genomic background probes); higher = stronger binding; sequences stand for … in GC…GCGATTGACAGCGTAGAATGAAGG
I'd appreciate it if you could supply PBM binding z-score values for the items below.
Respond using a number only.

Given the sequence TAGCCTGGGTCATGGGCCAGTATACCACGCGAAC , write its reported PBM binding z-score.
4.11

Give the value of PBM binding z-score reported for the following: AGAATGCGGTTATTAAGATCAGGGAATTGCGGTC
0.0333

Please look at this sequence and report its PBM binding z-score: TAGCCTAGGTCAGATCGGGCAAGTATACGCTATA
0.654

Return PBM binding z-score for the following sequence: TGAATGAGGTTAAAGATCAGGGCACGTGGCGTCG
5.69

Look up PBM binding z-score of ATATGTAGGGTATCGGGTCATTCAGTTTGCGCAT and report it.
5.64

Specify reported PBM binding z-score for the sequence shown: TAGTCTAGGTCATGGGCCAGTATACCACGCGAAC
7.25

Provide measured PBM binding z-score value, entry: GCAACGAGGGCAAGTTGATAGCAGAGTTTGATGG
0.841

Give recorded PBM binding z-score. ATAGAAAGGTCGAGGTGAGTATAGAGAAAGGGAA
3.26

State its PBM binding z-score: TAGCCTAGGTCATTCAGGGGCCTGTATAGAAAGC
2.01

Determine from records and report PBM binding z-score for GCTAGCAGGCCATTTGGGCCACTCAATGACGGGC
0.102

Output PBM binding z-score of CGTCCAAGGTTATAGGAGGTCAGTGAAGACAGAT
1.35

Give reported PBM binding z-score value for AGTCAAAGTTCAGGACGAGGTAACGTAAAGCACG
4.47

Provide one value: measured PBM binding z-score of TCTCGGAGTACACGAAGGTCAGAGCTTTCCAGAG
0.351
